subject_of_test: SpCyk3
test_details: SPOT peptide array binding signal intensity (averaged, normalized) (arbitrary units (background-subtracted, floor 0; scale differs between SH3 domains)); higher = stronger binding of the SH3 domain to the peptide
Label rule met for high-side SPOT peptide array binding signal intensity (at or above 4) and rule not met for low-side SPOT peptide array binding signal intensity (below it).

Study these solved cases before continuing.
- binder: "PPIPNAPLSPAPAVP"
  group_label: "rule not met"
- binder: "ILARAILTIPRVLDK"
  group_label: "rule met"

(Q) Does the binder `STPQTMRQAPKRPDA` have recorded SPOT peptide array binding signal intensity that is 4 or more?
(A) rule met

(Q) Now try `NNQRRKPLLLNIGDH` .
(A) rule not met

(Q) Now try `VQQDSLPKLPFRSWG` .
(A) rule met

(Q) Now try `QTMRQAPKRPDADVA` .
(A) rule not met

(Q) Now try `LFMKGTPEFPKSGFS` .
(A) rule not met
